test system: MCC-26; assay: qHTS assay to identify novel small-molecules to repurpose for Merkel cell carcinoma treatment (AID 1296009); details: MCC and control cell lines, CellTiter-Glo viability, 72 h; series mostly up to 46 µM; also: nearly all actives have a fitted effect of over 60% in size
Records with an inconclusive call do not appear. Activity calls are given as the source filed them. Calls follow the shape of the dose curve; as a rule, active = well fitted inhibition curve with a large enough effect; inconclusive = small, poorly fitted or top-dose-only effect; inactive = flat fitted curve, though single readings scatter.
Outcome codes: active, inactive

INSERT INTO results (compound, group) VALUES
  ('O=c1oc2cc(O)ccc2s1', 'inactive'),
  ('COc1ccc(C2(C#N)CCC(C(=O)O)CC2)cc1OC1CCCC1 (stereo not given)', 'inactive'),
  ('CN(C)CCCC1(c2ccc(F)cc2)OCc2cc(C#N)ccc21 (stereo not given)', 'inactive'),
  ('CC(C)C[C@H](NC(=O)[C@H](Cc1ccccc1)NC(=O)c1cnccn1)B(O)O', 'active'),
  ('COc1cc2c(N3CCN(C(=O)Nc4ccc(OC(C)C)cc4)CC3)ncnc2cc1OCCCN1CCCCC1', 'inactive'),
  ('CCC[C@@H]1C[C@@H](C(=O)N[C@@H]([C@H]2O[C@H](SC)[C@H](O)[C@@H](O)[C@H]2O)[C@@H](C)O)N(C)C1', 'inactive'),
  ('Cc1ccc(S(=O)(=O)NC(=O)NN2CC3CCCC3C2)cc1 (stereo not given)', 'inactive'),
  ('Cn1c(NCCN(CCO)CCCc2ccc([N+](=O)[O-])cc2)cc(=O)n(C)c1=O', 'inactive'),
  ('Nc1ccn([C@@H]2O[C@H](CO)[C@@H](O)C2O)c(=O)n1 (stereo not given in full)', 'inactive'),
  ('CC(C)c1ccc2c(c1)c(SC(C)(C)C)c(CC(C)(C)C(=O)O)n2Cc1ccc(Cl)cc1', 'inactive');

Each recorded value in this set is attributed to PubChem BioAssay (NCATS).
